Item-by-item account of pIC50
biological target: Plasma Kallikrein (Homo sapiens (Human), UniProt P03952); test: Determination of related protease inhibition: Plasma Kallikrein (fluorogenic substrate at Km); conditions: 25° C., read-out: IC50 (human PKal)
Sequence (P03952 391-638): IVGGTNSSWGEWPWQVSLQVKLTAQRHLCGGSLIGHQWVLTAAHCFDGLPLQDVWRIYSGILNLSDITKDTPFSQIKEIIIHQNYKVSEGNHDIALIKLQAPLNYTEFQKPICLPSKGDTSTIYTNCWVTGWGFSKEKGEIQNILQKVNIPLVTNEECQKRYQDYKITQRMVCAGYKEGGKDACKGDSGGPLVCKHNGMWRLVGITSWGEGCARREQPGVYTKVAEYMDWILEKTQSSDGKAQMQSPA
Sequence (P03952 20-390 partner): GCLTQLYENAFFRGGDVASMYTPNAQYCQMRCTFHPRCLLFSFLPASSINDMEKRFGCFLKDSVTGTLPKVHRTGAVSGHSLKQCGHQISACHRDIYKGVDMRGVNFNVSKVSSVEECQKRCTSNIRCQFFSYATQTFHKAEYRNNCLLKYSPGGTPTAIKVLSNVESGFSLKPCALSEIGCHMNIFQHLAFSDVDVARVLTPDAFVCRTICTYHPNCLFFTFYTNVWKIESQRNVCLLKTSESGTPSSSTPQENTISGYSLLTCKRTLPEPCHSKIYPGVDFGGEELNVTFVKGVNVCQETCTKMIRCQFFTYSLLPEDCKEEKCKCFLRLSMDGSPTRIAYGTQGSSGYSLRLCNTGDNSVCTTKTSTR
pIC50: −log10 of the molar value.
outcome_measure: pIC50

>>> result("COc1ccc2c(NCc3ccc(NCC4CCN(C)CC4)nc3)ccnc2c1")
"< 4.40"
>>> result("Nc1ncc(Cl)c2cc(NCc3ccc(NCC4CCn5ccnc5C4)nc3)ccc12 (stereo not drawn)")
"5.00 to 5.52"
>>> result("COc1cccc2ccc(NCc3ccc(NCC4CCN(C)CC4)nc3)cc12")
"< 4.00"
>>> result("Nc1nccc2cc(NCc3ccnc(-c4cccc(CN5CCCC5)c4)c3)ccc12 [Example 4434]")
"< 4.40"
>>> result("CN1CCC(CNc2ccc(CNc3ccc4c(N)ncc(Cl)c4c3)cn2)CC1")
"5.00 to 5.52"
>>> result("CN1CCC(OCc2ccc(CNc3ccc4c(N)nccc4c3)cc2)CC1")
"5.00 to 5.52"
>>> result("CN1CCC(CNc2ccc(CNc3ccc4cccnc4c3)cn2)CC1")
"< 4.00"
>>> result("Nc1ncc(Cl)c2cc(NCc3ccnc(OCc4ccn5ccnc5c4)c3)ccc12")
"< 4.40"
>>> result("CN1CCC(CNc2ccc(CNc3ccc4[nH]cnc4c3F)cn2)CC1")
"< 4.00"
